Value source: the supplement of paper PMC9112550

Tested on: Escherichia coli TOP10
assay.method.text: shrunken log2 fold change of peptide-encoding DNA abundance (4.5 h post-induction vs induction); higher = less antimicrobial activity (less host growth inhibition)
experimental.conditions: time post-induction: 4.5 h; library: site-saturation at positions 5, 18, 19, 20
metric.name: shrunken log2 fold change
Reply with the value as a number alone.

RRIRERPPRLPRPRPRPSRHPRP : -0.439

Enquiry: Report shrunken log2 fold change for `RRIRYRPPRLPRPRPRPWNNPRP` please.
Return: -0.656

Enquiry: Now the same for `RRIRHRPPRLPRPRPRPKNSPRP`
Return: -0.487

Enquiry: Now the same for `RRIRERPPRLPRPRPRPHLDPRP`
Return: 0.000475

Enquiry: Now the same for `RRIRSRPPRLPRPRPRPVIPPRP`
Return: -0.156

Enquiry: Now the same for `RRIRLRPPRLPRPRPRPKHHPRP`
Return: -0.296

Enquiry: Now the same for `RRIRHRPPRLPRPRPRPYFEPRP`
Return: -0.76

Enquiry: Now the same for `RRIRMRPPRLPRPRPRPAVWPRP`
Return: 1.08

----------
Reported values of shrunken log2 fold change for individual entries
Tested on: Escherichia coli TOP10
assay.method.text: shrunken log2 fold change of peptide-encoding DNA abundance (4.5 h post-induction vs induction); higher = less antimicrobial activity (less host growth inhibition)
experimental.conditions: time post-induction: 4.5 h; library: site-saturation at positions 5, 18, 19, 20
Reply with the value as a number alone.

Please review the following examples before continuing.
RRIRKRPPRLPRPRPRPIELPRP : -0.025
RRIRMRPPRLPRPRPRPGYAPRP : 0.341
RRIRWRPPRLPRPRPRPQFDPRP : 0.0373
RRIRTRPPRLPRPRPRPTTAPRP : 0.0738
RRIRIRPPRLPRPRPRPVKVPRP : -0.00567

Enquiry: Report shrunken log2 fold change for `RRIRERPPRLPRPRPRPMENPRP` please.
Return: -0.104

----------
Test system: Escherichia coli TOP10
assay.method.text: shrunken log2 fold change of peptide-encoding DNA abundance (4.5 h post-induction vs induction); higher = less antimicrobial activity (less host growth inhibition)
experimental.conditions: time post-induction: 4.5 h; library: site-saturation at positions 5, 18, 19, 20
Reported values of shrunken log2 fold change for individual entries

RRIRMRPPRLPRPRPRPLPIPRP : -0.0881

Enquiry: Report shrunken log2 fold change for `RRIRWRPPRLPRPRPRPMHFPRP` please.
Return: -0.00884

----------
Test system: Escherichia coli TOP10
assay.method.text: shrunken log2 fold change of peptide-encoding DNA abundance (4.5 h post-induction vs induction); higher = less antimicrobial activity (less host growth inhibition)
experimental.conditions: time post-induction: 4.5 h; library: site-saturation at positions 5, 18, 19, 20
Reported values of shrunken log2 fold change for individual entries

RRIRPRPPRLPRPRPRPAMSPRP : 0.128
RRIRHRPPRLPRPRPRPETSPRP : 0.0165

Continue with the sequence presented below.
Enquiry: Report shrunken log2 fold change for `RRIRIRPPRLPRPRPRPDDPPRP` please.
Return: -0.0328

----------
Tested on: Escherichia coli TOP10;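 further: peptides expressed intracellularly from a pBAD plasmid library in pooled LB shake-flask culture, induced with 0.3% L-arabinose, DNA abundance read by NGS, three biological replicates, DESeq2 with apeglm shrinkage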
assay.method.text: shrunken log2 fold change of peptide-encoding DNA abundance (4.5 h post-induction vs induction); higher = less antimicrobial activity (less host growth inhibition)
experimental.conditions: time post-induction: 4.5 h; library: site-saturation at positions 5, 18, 19, 20
metric.name: shrunken log2 fold change
Reply with the value as a number alone.

Please review the following examples before continuing.
RRIRKRPPRLPRPRPRPRKAPRP : 0.384
RRIRKRPPRLPRPRPRPPWIPRP : -0.0983
RRIRDRPPRLPRPRPRPVIQPRP : 0.474
RRIRRRPPRLPRPRPRPHAMPRP : 0.191
RRIRSRPPRLPRPRPRPDLIPRP : -0.00967

Enquiry: Report shrunken log2 fold change for `RRIRTRPPRLPRPRPRPMEMPRP` please.
Return: -0.236

Enquiry: Now the same for `RRIRHRPPRLPRPRPRPSIYPRP`
Return: -0.418

Enquiry: Now the same for `RRIRCRPPRLPRPRPRPEKGPRP`
Return: 0.0373

Enquiry: Now the same for `RRIRYRPPRLPRPRPRPIFFPRP`
Return: -0.353

Enquiry: Now the same for `RRIRARPPRLPRPRPRPHRWPRP`
Return: 0.0671

Enquiry: Now the same for `RRIRCRPPRLPRPRPRPYGYPRP`
Return: -0.0837

Enquiry: Now the same for `RRIRGRPPRLPRPRPRPDNFPRP`
Return: 0.169
